Source of measurements: ChEMBL document CHEMBL4020833

experimentalTarget: Apelin receptor (Homo sapiens, UniProt P35414)
Sequence (P35414 whole entry): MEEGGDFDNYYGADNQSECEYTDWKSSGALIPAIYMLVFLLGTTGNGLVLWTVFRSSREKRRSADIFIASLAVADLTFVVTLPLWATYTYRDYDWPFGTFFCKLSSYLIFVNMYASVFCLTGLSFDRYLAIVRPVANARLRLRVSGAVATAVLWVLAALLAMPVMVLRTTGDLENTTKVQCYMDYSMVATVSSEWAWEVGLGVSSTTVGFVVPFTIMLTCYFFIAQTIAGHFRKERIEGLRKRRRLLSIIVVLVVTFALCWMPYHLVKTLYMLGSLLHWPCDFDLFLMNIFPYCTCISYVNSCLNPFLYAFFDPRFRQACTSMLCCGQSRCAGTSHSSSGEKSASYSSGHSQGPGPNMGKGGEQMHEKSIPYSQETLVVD
assay: Displacement of [125I]-[Nle75, Tyr77] Pyr1-apelin-13 from YFP-tagged human APJ receptor expressed in HEK293 cell membranes after 1 hr by gamma-counting method
Starred links: 1 amine or outer side, 2 acyl side, 3 side chain; linkers in the order of their positions; H or OH if unused. Positions of bridges follow the written chain, without caps; N, C: chain ends. Non-standard residues stand in square brackets, D forms with d. Residues, ends and D or L forms follow the SMILES beside them. *: point of attachment. X1 = O=C([C@H](CCN(CC=[*:3])S(=O)(=O)c1ccccc1[N+](=O)[O-])N[*:1])[*:2]; X6 = N=C(N)NCCC[C@H](NC(=O)[C@@H]1CCC(=O)N1)C(=O)[C@@H]1CCCN1*; X3 = C=CCN([C@@H](CCCNC(=N)N)C(=O)[*:2])[*:1]; AllylGly = C=CC[C@H](N)C(=O)O; pGlu = O=C1CC[C@@H](C(=O)O)N1; Nle = CCCC[C@H](N)C(=O)O; CO = O=C([*:1])[*:2]
# note: boundary value 4 nM maps to not fulfilled; Ki below it maps to fulfilled

Reference set (3 entries):
INSERT INTO results (molecule, assignedlabel) VALUES
  ('C=CC[C@H](NC(=O)[C@H](CO)NC(=O)[C@H](CC(C)C)NC(=O)[C@H](CCCNC(=N)N)NC(=O)[C@H](CC=C)NC(=O)[C@H](CCCNC(=N)N)NC(=O)[C@@H]1CCC(=O)N1)C(=O)N[C@@H](CCCCN)C(=O)NCC(=O)N1CCC[C@H]1C(=O)N[C@@H](CCCC)C(=O)N1CCC[C@H]1C(=O)N[C@@H](Cc1ccccc1)C(=O)O', 'fulfilled'),
  ('CCCC[C@H](NC(=O)[C@@H]1CCCN1C(=O)[C@@H]1C/C=C\C[C@H](NC(=O)[C@H](CCCNC(=N)N)NC(=O)[C@@H]2CCCN2C(=O)[C@H](CCCNC(=N)N)NC(=O)[C@@H]2CCC(=O)N2)C(=O)N[C@@H](CO)C(=O)N[C@@H](Cc2cnc[nH]2)C(=O)N[C@@H](CCCCN)C(=O)N1)C(=O)N1CCC[C@H]1C(=O)N[C@@H](Cc1ccccc1)C(=O)O ([pGlu]RPR[AllylGly]SHK[AllylGly]P[Nle]PF-OH; staple (Z) 5-9)', 'not fulfilled'),
  ('CCCC[C@H](NC(=O)[C@@H]1CCCN1C(=O)CNC(=O)[C@H](CCCCN)NC(=O)[C@H](Cc1cnc[nH]1)NC(=O)[C@H](CO)NC(=O)[C@@H]1C/C=C\C[C@H](N)C(=O)N[C@@H](CCCNC(=N)N)C(=O)N2CCC[C@H]2C(=O)N[C@@H](CCCNC(=N)N)C(=O)N1)C(=O)N1CCC[C@H]1C(=O)N[C@@H](Cc1ccccc1)C(=O)O', 'not fulfilled');

Exam item: Strictly below 4 nM: is that where Ki of C=CC[C@H](NC(=O)[C@@H]1CCCN1C(=O)[C@H](CCCC)NC(=O)[C@@H]1CCCN1C(=O)[C@H](CC=C)NC(=O)[C@H](CCCCN)NC(=O)[C@H](Cc1cnc[nH]1)NC(=O)[C@H](CO)NC(=O)[C@H](CC(C)C)NC(=O)[C@H](CCCNC(=N)N)NC(=O)[C@@H]1CCCN1C(=O)[C@H](CCCNC(=N)N)NC(=O)[C@@H]1CCC(=O)N1)C(=O)O ([pGlu]RPRLSHK[AllylGly]P[Nle]P[AllylGly]-OH) sits?
Marked response: fulfilled

Exam item: Strictly below 4 nM: is that where Ki of C=CC[C@H](NC(=O)[C@H](Cc1cnc[nH]1)NC(=O)[C@H](CO)NC(=O)[C@H](CC(C)C)NC(=O)[C@H](CCCNC(=N)N)N(CC=C)C(=O)[C@@H]1CCCN1C(=O)[C@H](CCCNC(=N)N)NC(=O)[C@@H]1CCC(=O)N1)C(=O)NCC(=O)N1CCC[C@H]1C(=O)N[C@@H](CCCC)C(=O)N1CCC[C@H]1C(=O)N[C@@H](Cc1ccccc1)C(=O)O ([pGlu]RP[X3]LSH[AllylGly]GP[Nle]PF-OH) sits?
Marked response: fulfilled

Exam item: Strictly below 4 nM: is that where Ki of CCCC[C@@H]1NC(=O)[C@@H]2CCCN2C(=O)[C@@H](N)CCN(S(=O)(=O)c2ccccc2[N+](=O)[O-])C/C=C\C[C@@H](C(=O)O)NC(=O)[C@@H]2CCCN2C1=O (H-[X1]P[Nle]P[AllylGly]-OH; staple (Z) 1-5) sits?
Marked response: not fulfilled

Exam item: Strictly below 4 nM: is that where Ki of CC(C)C[C@H](NC(=O)[C@H](CCCNC(=N)N)NC(=O)[C@@H]1CCCN1C(=O)[C@H](CCCNC(=N)N)NC(=O)[C@@H]1CCC(=O)N1)C(=O)N[C@@H](CO)C(=O)N[C@H]1C/C=C\C[C@@H](C(=O)N2CCC[C@H]2C(=O)N[C@@H](Cc2ccccc2)C(=O)O)NC(=O)[C@@H]2CCCN2C(=O)CNC(=O)[C@H](CCCCN)NC1=O ([pGlu]RPRLS[AllylGly]KGP[AllylGly]PF-OH; staple (Z) 7-11) sits?
Marked response: fulfilled

Exam item: Strictly below 4 nM: is that where Ki of CCCC[C@@H]1NC(=O)[C@@H](NC(=O)CNC(=O)[C@H](CCCCN)NC(=O)[C@H](Cc2cnc[nH]2)NC(=O)[C@H](CO)NC(=O)[C@H](CC(C)C)NC(=O)[C@H](CCCNC(=N)N)NC(=O)N2CCC[C@H]2C(=O)[C@H](CCCNC(=N)N)NC(=O)[C@@H]2CCC(=O)N2)C/C=C\C[C@@H](C(=O)O)NC(=O)[C@H](Cc2ccccc2)NC(=O)[C@@H]2CCCN2C1=O ({X6-CO}-RLSHKG[AllylGly][Nle]PF[AllylGly]-OH; staple (Z) 7-11) sits?
Marked response: not fulfilled
